Origin of values: PubChem BioAssay (NCI)

Tested on: DLD-1 colon
Assay: NCI tumour cell line growth inhibition, 48 h
ENDPOINT_LABEL: TGI (µM)

[[record]]
compound = "COC1C2c3cc4c(cc3CC(C#N)(c3ccccc32)N1C(=O)c1ccccc1)OCO4 (stereo not drawn)"
limit_sign = ">"
value_observed = 100

[[record]]
compound = "CCCCCCCCCCCCCC(=O)CSCCNC(=O)CCNC(=O)[C@@H](O)C(C)(C)COP(=O)(O)OP(=O)(O)OCC1OC(n2cnc3c(N)ncnc32)C(O)C1OP(=O)(O)O (stereo partly drawn)"
limit_sign = "="
value_observed = 41.1

[[record]]
compound = "O=C1c2ccccc2C(=O)c2sc(Nc3ccccc3Cl)nc21"
limit_sign = "="
value_observed = 25.1

